experiment: Inhibition of glycogen phosphorylase assessed as […] phosphate release at 100 uM after 30 mins
Active and inactive are the calls of the source. The calls are words filed in the database; no cut-off is given here.
Measurement type: inhibition

CC1(C)CC(=O)C2=C(C1)NC(c1ccccc1)=CC2c1ccc(F)cc1 (configuration not stated)
14.6%
CC1(C)CC(=O)C2=C(C1)NC(c1ccccc1)=CC2c1ccccc1 (configuration not stated)
inactive
O=C1CCCC2=C1C(c1ccc(F)cc1)C=C(c1ccccc1)N2 (configuration not stated)
17.4%
CC1(C)CC(=O)C2=C(C1)NC(c1ccccc1)=CC2c1ccco1 (configuration not stated)
18.9%
COc1ccc(C2=CC(c3ccccc3)C3=C(CC(C)(C)CC3=O)N2)cc1 (configuration not stated)
18.4%
CC1(C)CC(=O)C2=C(C1)NC(c1ccccc1)=CC2c1ccc([N+](=O)[O-])cc1 (configuration not stated)
inactive
CCOC(=O)C1=CC(c2ccccc2)C2=C(CC(C)(C)CC2=O)N1 (configuration not stated)
49.5%
COc1ccc(-c2cc(-c3ccccc3)nc3c2C(=O)CC(C)(C)C3)cc1
31.1%
COc1ccc(C2C=C(c3ccccc3)NC3=C2C(=O)CCC3)cc1 (configuration not stated)
13.8%
CC1(C)CC(=O)c2c(-c3ccc(Cl)cc3)cc(-c3ccccc3)nc2C1
13.8%

Incoming: Recorded inhibition of CCOC(=O)C1(O)CC(c2ccc(Br)cc2)C2=C(CC(C)(C)CC2=O)O1 (configuration not stated) , please.
Outgoing: 12.3%

Incoming: Recorded inhibition of CCOC(=O)C1=CC(c2ccc(Br)cc2)C2=C(CC(C)(C)CC2=O)N1 (configuration not stated) , please.
Outgoing: 49.3%

Incoming: Recorded inhibition of CC1(C)CC(=O)C2=C(C1)NC(c1ccccc1)=CC2c1ccc(Cl)cc1 (configuration not stated) , please.
Outgoing: 5.89%

Incoming: Recorded inhibition of CCOC(=O)C1=CC(c2ccc(F)cc2)C2=C(CC(C)(C)CC2=O)N1 (configuration not stated) , please.
Outgoing: 61.2%

Incoming: Recorded inhibition of CC1(C)CC(=O)C2=C(C1)NC(C(=O)O)=CC2c1ccccc1 (configuration not stated) , please.
Outgoing: 77.3%

Incoming: Recorded inhibition of Cc1ccc(C2=CC(c3ccccc3)C3=C(CCCC3=O)N2)cc1 (configuration not stated) , please.
Outgoing: inactive

Incoming: Recorded inhibition of COc1ccc(C2C=C(c3ccccc3)NC3=C2C(=O)CC(C)(C)C3)cc1 (configuration not stated) , please.
Outgoing: inactive

Incoming: Recorded inhibition of CCOC(=O)C1(O)CC(c2ccc(Cl)cc2)C2=C(CC(C)(C)CC2=O)O1 (configuration not stated) , please.
Outgoing: 7.6%

Incoming: Recorded inhibition of CC1(C)CC(=O)C2=C(C1)NC(C(=O)O)=CC2c1ccc(Cl)cc1 (configuration not stated) , please.
Outgoing: 63.4%

* * *

target: Glucose-6-phosphatase catalytic subunit 1 (Homo sapiens) (UniProt P35575); experiment: Inhibition of glucose-6-phosphatase assessed as inositol phosphate release at 100 uM after 30 mins; settings: in the assay text read “inorganic phosphate” for “inositol phosphate”
Sequence (P35575 whole entry): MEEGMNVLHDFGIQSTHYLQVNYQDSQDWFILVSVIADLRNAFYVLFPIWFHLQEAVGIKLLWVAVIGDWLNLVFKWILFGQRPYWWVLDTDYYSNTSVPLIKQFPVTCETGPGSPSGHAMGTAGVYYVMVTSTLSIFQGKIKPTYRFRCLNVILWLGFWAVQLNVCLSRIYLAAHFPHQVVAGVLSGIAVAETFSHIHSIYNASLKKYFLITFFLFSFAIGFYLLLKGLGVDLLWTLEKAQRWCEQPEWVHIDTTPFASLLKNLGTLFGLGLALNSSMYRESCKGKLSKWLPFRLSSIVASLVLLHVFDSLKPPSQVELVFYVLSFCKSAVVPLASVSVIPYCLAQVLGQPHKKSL
The source made the active and inactive calls. The rule behind the calls is not given here.
Measurement type: inhibition

CCOC(=O)C1(O)CC(c2ccc(F)cc2)C2=C(CC(C)(C)CC2=O)O1 (stereo not given)
inactive
CC1(C)CC(=O)C2=C(C1)NC(c1ccccc1)=CC2c1ccc(F)cc1 (stereo not given)
7.38%
CC1(C)CC(=O)C2=C(C1)NC(c1ccccc1)=CC2c1ccccc1 (stereo not given)
inactive
CCOC(=O)C1(O)CC(c2ccc(Br)cc2)C2=C(CC(C)(C)CC2=O)O1 (stereo not given)
inactive

# context switch: different compound, same inhibition
Incoming: Hi! What's the reported inhibition for `CC1(C)CC(=O)c2c(-c3ccc(F)cc3)cc(-c3ccccc3)nc2C1` on Glucose-6-phosphatase catalytic subunit 1 (Homo sapiens) (UniProt P35575)?
Outgoing: 11.1%

* * *

Consider the following molecules and their measured pIC50 readings.
assay: Inhibition of glycogen phosphorylase assessed as inositol phosphate release after 30 mins
# log scale: pIC50 equals minus log10 of the concentration in mol/L

CC1(C)CC(=O)C2=C(C1)NC(C(=O)O)=CC2c1ccc(Br)cc1 (centres undefined)
5.28
CC1(C)CC(=O)C2=C(C1)NC(C(=O)O)=CC2c1ccccc1 (centres undefined)
5.21

Incoming: Recorded pIC50 of CC1(C)CC(=O)C2=C(C1)NC(C(=O)O)=CC2c1ccc(Cl)cc1 (centres undefined) , please.
Outgoing: 5.01

Incoming: Recorded pIC50 of COc1ccc(C2C=C(C(=O)O)NC3=C2C(=O)CC(C)(C)C3)cc1 (centres undefined) , please.
Outgoing: 5.23

* * *

experiment: Inhibition of glycogen phosphorylase assessed as […] phosphate release at 100 uM after 30 mins
Measurement type: inhibition (%)
Expressed in %, but write only the number.

COc1ccc(C2C=C(C(=O)O)NC3=C2C(=O)CC(C)(C)C3)cc1 (stereo not given)
78.3
CC1(C)CC(=O)c2c(-c3ccc(F)cc3)cc(-c3ccccc3)nc2C1
20.3
CC1(C)CC(=O)C2=C(C1)NC(c1ccccc1)=CC2c1c[nH]c2ccccc12 (stereo not given)
39.7
CCOC(=O)C1(O)CC(c2ccc(F)cc2)C2=C(CC(C)(C)CC2=O)O1 (stereo not given)
14.9

# context switch: different molecule, same inhibition
Incoming: Recorded inhibition of CC1(C)CC(=O)C2=C(C1)NC(C(=O)O)=CC2c1ccc(Br)cc1 (stereo not given) , please.
Outgoing: 81.3

* * *

test: Inhibition of alpha-glucosidase at 100 uM after 3 mins
Calls of active or inactive are those of the source. The calls are words filed in the database; no cut-off is given here.
Measurement type: inhibition

Worked examples, 4 compounds total:
CCOC(=O)C1=CC(c2ccc(Cl)cc2)C2=C(CC(C)(C)CC2=O)N1 (stereo not given)
inactive
CCOC(=O)C1(O)CC(c2ccc(F)cc2)C2=C(CC(C)(C)CC2=O)O1 (stereo not given)
inactive
CCOC(=O)C1=CC(c2ccc(F)cc2)C2=C(CC(C)(C)CC2=O)N1 (stereo not given)
15.8%
CCOC(=O)C1=CC(c2ccc(Br)cc2)C2=C(CC(C)(C)CC2=O)N1 (stereo not given)
inactive

# context switch: different compound, same inhibition
Incoming: Recorded inhibition of CCOC(=O)C1=CC(c2ccccc2)C2=C(CC(C)(C)CC2=O)N1 (stereo not given) , please.
Outgoing: inactive

* * *

molecular target: Tyrosine-protein phosphatase non-receptor type 1 (Homo sapiens, UniProt P18031); assay: Inhibition of PTP1B assessed as p-nitrophenolate ion production pretreated for 10 mins measured after 30 mins
Sequence (P18031 whole entry): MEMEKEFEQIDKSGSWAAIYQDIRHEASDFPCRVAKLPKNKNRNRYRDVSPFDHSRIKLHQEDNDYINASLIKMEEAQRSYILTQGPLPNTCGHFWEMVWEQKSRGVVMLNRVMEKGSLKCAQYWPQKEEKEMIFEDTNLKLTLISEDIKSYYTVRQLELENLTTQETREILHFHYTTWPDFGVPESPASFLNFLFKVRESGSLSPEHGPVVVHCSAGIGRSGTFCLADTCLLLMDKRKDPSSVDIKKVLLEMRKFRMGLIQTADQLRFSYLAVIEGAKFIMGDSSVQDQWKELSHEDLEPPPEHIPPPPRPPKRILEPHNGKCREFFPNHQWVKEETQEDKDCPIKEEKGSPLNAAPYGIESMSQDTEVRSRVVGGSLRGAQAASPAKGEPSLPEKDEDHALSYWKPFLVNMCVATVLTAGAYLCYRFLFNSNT
Classification scheme (IC50): low group = under 6 µM, middle group = from 6 µM up to 10 µM, high group = 10 µM and over

# count of solved cases: 2
Cc1ccc(C2=CC(c3ccccc3)C3=C(CC(C)(C)CC3=O)N2)cc1 (centres undefined)
high group
CC1(C)CC(=O)C2=C(C1)NC(c1ccccc1)=CC2c1ccc(F)cc1 (centres undefined)
low group

Incoming: State the class of the molecule shown: CCOC(=O)C1=CC(c2ccc(Br)cc2)C2=C(CC(C)(C)CC2=O)N1 (centres undefined)
Outgoing: high group

Incoming: State the class of the molecule shown: COc1ccc(C2C=C(c3ccccc3)NC3=C2C(=O)CC(C)(C)C3)cc1 (centres undefined)
Outgoing: high group

Incoming: State the class of the molecule shown: CC1(C)CC(=O)C2=C(C1)NC(c1ccccc1)=CC2c1ccc(Cl)cc1 (centres undefined)
Outgoing: middle group

Incoming: State the class of the molecule shown: CCOC(=O)C1=CC(c2ccc(F)cc2)C2=C(CC(C)(C)CC2=O)N1 (centres undefined)
Outgoing: low group

Incoming: State the class of the molecule shown: CC1(C)CC(=O)C2=C(C1)NC(c1ccccc1)=CC2c1ccco1 (centres undefined)
Outgoing: middle group

Incoming: State the class of the molecule shown: O=C1CCCC2=C1C(c1ccc(F)cc1)C=C(c1ccccc1)N2 (centres undefined)
Outgoing: high group

* * *

target: UniProtKB P27487; experiment: Inhibition of DPP4 at 100 uM after 15 mins by spectrofluorimeter
Sequence (P27487 whole entry, looked up): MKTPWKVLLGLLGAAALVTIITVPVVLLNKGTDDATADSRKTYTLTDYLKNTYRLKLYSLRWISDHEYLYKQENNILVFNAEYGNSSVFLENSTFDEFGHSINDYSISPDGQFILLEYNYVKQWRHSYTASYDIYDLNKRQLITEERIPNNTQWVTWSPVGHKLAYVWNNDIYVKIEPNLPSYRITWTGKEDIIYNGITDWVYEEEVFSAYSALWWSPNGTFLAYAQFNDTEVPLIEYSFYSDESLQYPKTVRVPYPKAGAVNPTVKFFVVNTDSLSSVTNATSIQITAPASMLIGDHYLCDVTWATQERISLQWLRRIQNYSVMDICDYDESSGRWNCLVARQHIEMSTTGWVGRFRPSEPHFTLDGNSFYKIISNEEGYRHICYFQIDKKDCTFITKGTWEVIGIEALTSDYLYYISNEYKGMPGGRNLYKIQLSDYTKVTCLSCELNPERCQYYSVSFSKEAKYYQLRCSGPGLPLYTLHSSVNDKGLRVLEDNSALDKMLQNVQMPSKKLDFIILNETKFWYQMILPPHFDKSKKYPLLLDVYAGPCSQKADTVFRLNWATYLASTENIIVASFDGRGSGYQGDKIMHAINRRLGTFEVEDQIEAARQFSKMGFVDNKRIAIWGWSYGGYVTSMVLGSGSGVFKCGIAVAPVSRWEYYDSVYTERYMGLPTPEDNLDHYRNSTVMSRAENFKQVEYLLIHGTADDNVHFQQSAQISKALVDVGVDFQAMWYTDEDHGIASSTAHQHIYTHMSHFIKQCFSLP
Activity calls are given as the source filed them. The rule behind the calls is not given here.
Measurement type: inhibition

Worked examples, 8 molecules total:
CCOC(=O)C1(O)CC(c2ccc(F)cc2)C2=C(CC(C)(C)CC2=O)O1 (stereo unspecified)
inactive
O=C1CCCC2=C1C(c1ccc(F)cc1)C=C(c1ccccc1)N2 (stereo unspecified)
inactive
CC1(C)CC(=O)C2=C(C1)NC(C(=O)O)=CC2c1ccccc1 (stereo unspecified)
14.6%
Cc1ccc(C2=CC(c3ccccc3)C3=C(CC(C)(C)CC3=O)N2)cc1 (stereo unspecified)
inactive
COc1ccc(C2C=C(c3ccccc3)NC3=C2C(=O)CCC3)cc1 (stereo unspecified)
inactive
CCOC(=O)C1=CC(c2ccc(OC)cc2)C2=C(CC(C)(C)CC2=O)N1 (stereo unspecified)
16.5%
CCOC(=O)C1(O)CC(c2ccc(OC)cc2)C2=C(CC(C)(C)CC2=O)O1 (stereo unspecified)
inactive
CCOC(=O)C1=CC(c2ccccc2)C2=C(CC(C)(C)CC2=O)N1 (stereo unspecified)
inactive

Incoming: Recorded inhibition of CC1(C)CC(=O)C2=C(C1)NC(c1ccccc1)=CC2c1ccco1 (stereo unspecified) , please.
Outgoing: 18.6%

Incoming: Recorded inhibition of COc1ccc(C2C=C(C(=O)O)NC3=C2C(=O)CC(C)(C)C3)cc1 (stereo unspecified) , please.
Outgoing: 5.7%

Incoming: Recorded inhibition of `COc1ccc(-c2cc(-c3ccccc3)nc3c2C(=O)CC(C)(C)C3)cc1` , please.
Outgoing: 22%
